Ref: paper PMC2756588

Biological target: T1, Sla1-2, P32790
T1 sequence (P32790 60-140, looked up): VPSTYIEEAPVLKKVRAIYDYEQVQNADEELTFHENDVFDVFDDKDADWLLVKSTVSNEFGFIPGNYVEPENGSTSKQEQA
Assay: SPOT array
Conditions: median of control spots 712
Recorded metric: SPOT intensity

RSVKRPRRAPRPVVS : 6
GERSRPLVISILSSA : 1
QLMKNLPKIPLLNDI : 5

a: RHLKNIPRIPIFSIL
b: VDFTLPPPPPPPGLD
q: Which shows the larger SPOT intensity value: a or b ? Please respond with the label that marks your chosen entry.
a: b
(b: 1, a: 0)
